assay-target: D(2) dopamine receptor (Homo sapiens)
test-summary: HTS Assay for Allosteric Antagonists of the Human D2 Dopamine Receptor: Primary Screen for Antagonists; note: 0% is about no effect
condition-set: HEK293 TREx D2 cells, calcium flux, dopamine EC80; at 10 µM; active compounds read high
Screen size: about 340,000 compounds; about 6,900 (2%) were called active. The full list was thinned out, with actives kept by preference.
parameter: inhibition (%)

>  <compound>
COc1ccc(CN2CC(C(=O)NCCN3CCN(c4ccccc4F)CC3)CC2=O)cc1 (stereo not given)

>  <experimental-result>
78.4

$$$$
>  <compound>
Cc1cc(=O)oc2cc(OCCC[n+]3ccccc3)ccc12

>  <experimental-result>
13.4

$$$$
>  <compound>
Cc1ccccc1N1CCN(CCCOc2ccc3c(C)cc(=O)oc3c2)CC1

>  <experimental-result>
109

$$$$
>  <compound>
COc1ccc(CN2CC(C(=O)NCCc3ccc(Cl)cc3)CC2=O)cc1 (stereo not given)

>  <experimental-result>
4.69

$$$$
>  <compound>
CCOC(=O)N1CCN(c2c(NCCN3CCN(c4ccccc4F)CC3)c(=O)c2=O)CC1

>  <experimental-result>
-8.27

$$$$
